# Experimental System: Cytochrome P450 2D6 (Homo sapiens) (UniProt P10635)
# Sequence (P10635 whole entry, looked up): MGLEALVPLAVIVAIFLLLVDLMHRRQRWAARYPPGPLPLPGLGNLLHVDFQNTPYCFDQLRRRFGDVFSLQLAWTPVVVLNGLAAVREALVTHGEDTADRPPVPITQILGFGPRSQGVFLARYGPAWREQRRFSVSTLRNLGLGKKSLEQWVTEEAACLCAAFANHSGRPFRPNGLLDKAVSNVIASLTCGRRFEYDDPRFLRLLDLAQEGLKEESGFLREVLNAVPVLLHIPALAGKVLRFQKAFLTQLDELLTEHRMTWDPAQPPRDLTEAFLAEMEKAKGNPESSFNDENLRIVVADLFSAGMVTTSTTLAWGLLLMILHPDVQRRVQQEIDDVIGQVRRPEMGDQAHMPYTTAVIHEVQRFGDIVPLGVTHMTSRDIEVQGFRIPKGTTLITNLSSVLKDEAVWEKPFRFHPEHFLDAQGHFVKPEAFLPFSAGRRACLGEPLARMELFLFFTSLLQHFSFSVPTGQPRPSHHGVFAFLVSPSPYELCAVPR
# Assay Details: Cytochrome P450 family 2 subfamily D member 6 (CYP2D6) small molecule antagonists: luciferase biochemical (cell-free) qHTS assay (AID 1645840); further: nearly all actives have a fitted effect of over 55% in size
# Measurement Setup: P450-Glo CYP2D6 enzyme, luciferin luminescence, 1 h; series mostly up to 57.4 µM
Inconclusive results are not listed. Activity calls are given as the source filed them. The call rests on the fitted dose curve; in most records, active means well fitted inhibition curve with a large enough effect in the repeat runs; inconclusive means weak or mixed curves; inactive means flat fitted curve, though single readings scatter. Where a SMILES comes first, the peptide text is derived from it. The star is where a group is joined. Hexanoyl = CCCCCC(=O)*
Just give me one of these, please: 1 (active), -1 (inactive)

Recorded call for CCOC(=O)C(CCc1ccccc1)NC1CCCN2CCCC(C(=O)O)N2C1=O (centres undefined) ? -1

Hi team, can someone confirm the assay call for CCCCS(=O)(=O)NC(Cc1ccc(OCCCCC2CCNCC2)cc1)C(=O)O (centres undefined) ? -1

Please share the test call associated with `Cc1ccccc1-c1cc(N2CCN(C)CC2)ncc1N(C)C(=O)C(C)(C)c1cc(C(F)(F)F)cc(C(F)(F)F)c1` . 1

I would be grateful if you could indicate the recorded call for `CC(=O)N[C@H](Cc1c[nH]c2ccccc12)C(=O)OCc1cc(C(F)(F)F)cc(C(F)(F)F)c1` . 1

Which outcome did this test record for the compound `FC(F)(F)c1nnc2c(Sc3ccccc3)nc3ccc(Cl)cc3n12` ? -1

State the result this test recorded for `CNC(=O)c1ccc2c(c1)CCO[C@H]2CCN1CCN(c2ccc(C(N)=O)cc2)CC1` . -1

What is the recorded call for this compound in the test? CCCCCC(=O)N1CCC[C@H]1C(=O)N[C@@H](Cc1ccc(O)cc1)C(=O)OC (Hexanoyl-Pro-Tyr-OMe) -1

What is the recorded call for this compound in the test? `COc1ccc(N2CCN(CCCNC(=O)Cn3c(=O)c4cccn4c4c(C)ccnc43)CC2)cc1` -1

Hi, do you know how `N#Cc1cccc(-c2nc(-c3cccnc3)no2)c1` came out in this test? 1

* * *

# System: JEG-3
# Assay Details: Primary qHTS to identify gynecologic anti-cancer compounds using libraries of approved drugs and bioactive compounds (AID 1345084); further: nearly all actives have a fitted effect of over 55% in size
# Measurement Setup: Gynecologic cancer cell panel viability, ATPlite luminescence, 48 h; series mostly up to 57.5 µM
Records with an inconclusive call do not appear. Activity calls are given as the source filed them. The call rests on the fitted dose curve; in most records, active means well fitted cell-killing curve with a large enough effect; inconclusive means small, poorly fitted or top-dose-only effect, or effect the other way; inactive means flat fitted curve, though single readings scatter.
Measurement Type: activity change, negative = cytotoxicity

Known results for molecules:
[
  {
    "Molecule": "O=C(/C=C/c1ccc(O)c(O)c1)OC[C@H]1O[C@@H](OC2CCCCC2O)[C@H](O)[C@@H](O)[C@@H]1O (stereo partly drawn)",
    "Assay Result": "inactive"
  },
  {
    "Molecule": "COc1ccnc2[nH]cc(C(=O)C(=O)N3CCN(C(=O)c4ccccc4)CC3C)c12 (stereo not drawn)",
    "Assay Result": "inactive"
  },
  {
    "Molecule": "CC(=O)NCC1CN(c2ccc(-c3ccc(CNCc4cn[nH]n4)cc3)c(F)c2)C(=O)O1 (stereo not drawn)",
    "Assay Result": "inactive"
  },
  {
    "Molecule": "C/C=C(\\C)C(=O)OCC1OC(OCC2OC(OC3(CO)OC(CO)C(O)C3O)C(O)C(O)C2O)C(O)C(O)C1O (stereo not drawn)",
    "Assay Result": "inactive"
  },
  {
    "Molecule": "C[C@]12CCC[C@](C)(C(=O)O)C1[C@@H](O)[C@@H](O)C13CC(CCC12)C(CO)(O[C@@H]1O[C@H](CO)[C@@H](O)[C@H](O)[C@H]1O)C3 (stereo partly drawn)",
    "Assay Result": "inactive"
  },
  {
    "Molecule": "CC1=C(CO)C2(C)CCCC(C)(C)C2C(O)C1O (stereo not drawn)",
    "Assay Result": "inactive"
  },
  {
    "Molecule": "CC(C)C1NC(=O)C(CC2(O)c3ccccc3N3C(=O)C(Cc4ccccc4)NC32)NC1=O (stereo not drawn)",
    "Assay Result": "inactive"
  }
]

# query: activity change, negative = cytotoxicity of entry Nc1ncnc2c1C(=O)N(c1ccc(C3CCC(CC(=O)O)CC3)cc1)CCO2 (stereo not drawn) inactive
